Measured Kd accompanies every entry in the list below.
- Target desc: T1, CA125, human TAT10772 shed antigen (human, UniProt Q8WXI7 1-14451, limits assumed)
- T1 construct: domain: entire shed antigen; Bought reagent; also called CA125 polypeptide
- Assay remarks: ELISA, IgG, CA125
// units = nM; emit number, no label

3A5v8 (SEQ ID NO: 205) (antibody, V domains shown, Humanized IgG) VH: EVQLVESGGGLVQPGGSLRLSCAASGYSITNDYAWNWVRQAPGKGLEWVGYINYSGYTTYNPSLKSRFTISRDTSKNTLYLQMNSLRAEDTAVYYCARWTSGLDSWGQGTLVTVSS VL: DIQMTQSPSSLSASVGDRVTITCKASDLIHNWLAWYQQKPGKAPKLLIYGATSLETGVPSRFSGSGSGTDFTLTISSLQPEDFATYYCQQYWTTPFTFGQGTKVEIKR : 0.4

Could you now look at the following binder, please?
Name the reported Kd value associated with the binder 3A5.F-graft (SEQ ID NO: 13), IgG (antibody, V domains shown, IgG) VH: EVQLVESGGGLVQPGGSLRLSCAASGYSITNDYAWNWVRQAPGKGLEWVGYINYSGYTTYNPSLKSRFTISRDNSKNTFYLQMNSLRAEDTAVYYCARWDGGLTYWGQGTLVTVSS VL: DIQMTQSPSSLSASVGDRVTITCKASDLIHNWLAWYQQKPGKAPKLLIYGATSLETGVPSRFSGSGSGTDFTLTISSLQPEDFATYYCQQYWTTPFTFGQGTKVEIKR
51.4
